# Target: Coagulation factor IX (Homo sapiens, UniProt P00740)
# Sequence (P00740 47-191 limits assumed): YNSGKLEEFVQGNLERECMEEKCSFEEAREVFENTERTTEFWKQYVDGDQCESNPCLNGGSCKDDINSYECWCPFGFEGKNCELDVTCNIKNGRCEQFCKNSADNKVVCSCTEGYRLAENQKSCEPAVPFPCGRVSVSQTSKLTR
# Sequence (P00740 227-461 limits assumed): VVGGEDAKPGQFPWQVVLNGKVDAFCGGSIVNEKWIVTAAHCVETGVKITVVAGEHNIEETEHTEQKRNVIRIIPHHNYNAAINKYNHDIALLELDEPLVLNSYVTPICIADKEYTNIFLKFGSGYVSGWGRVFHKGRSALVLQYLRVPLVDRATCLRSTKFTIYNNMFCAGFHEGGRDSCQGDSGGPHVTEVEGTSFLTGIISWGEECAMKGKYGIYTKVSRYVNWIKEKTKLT
Parameter measured: pKi
Value format note: pKi is -log10 of concentration (mol/L); just state the number.

Ask: Give pKi for the following compound: CCS(=O)(=O)c1ccc2cc1CNC(=O)[C@H](Nc1ccc3c(N)nccc3c1)c1ccc(c(C)c1)CCCC(=O)N2
Reply: 4.80

---

# Target: Coagulation factor VII/tissue factor (Homo sapiens)
# Sequence (P08709 61-212 limits assumed): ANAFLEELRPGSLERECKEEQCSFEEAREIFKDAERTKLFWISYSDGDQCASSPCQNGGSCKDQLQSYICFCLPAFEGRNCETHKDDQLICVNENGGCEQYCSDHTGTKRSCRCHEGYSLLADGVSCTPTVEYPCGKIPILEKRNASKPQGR
# Sequence (P08709 213-466 limits assumed): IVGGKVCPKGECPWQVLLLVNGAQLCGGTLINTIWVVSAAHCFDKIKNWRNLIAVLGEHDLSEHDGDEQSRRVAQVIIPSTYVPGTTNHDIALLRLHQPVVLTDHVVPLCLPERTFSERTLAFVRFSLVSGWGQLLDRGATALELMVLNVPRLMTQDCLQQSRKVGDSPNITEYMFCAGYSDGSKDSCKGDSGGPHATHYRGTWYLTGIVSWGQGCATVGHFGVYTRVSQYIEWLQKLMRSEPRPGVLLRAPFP
# Sequence (P13726 33-295 partner limits assumed): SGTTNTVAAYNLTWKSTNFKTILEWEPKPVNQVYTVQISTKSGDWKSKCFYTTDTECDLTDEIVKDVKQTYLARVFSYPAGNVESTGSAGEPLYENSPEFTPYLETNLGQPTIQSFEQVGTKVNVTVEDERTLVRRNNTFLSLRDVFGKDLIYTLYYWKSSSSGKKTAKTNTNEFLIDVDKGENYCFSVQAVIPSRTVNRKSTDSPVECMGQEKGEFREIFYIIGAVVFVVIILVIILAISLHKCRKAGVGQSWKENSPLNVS
# Protocol: Inhibition of human recombinant TF/F7a complex using S2288 as substrate preincubated for 15 mins followed by protein addition measured for 60 mins
Parameter measured: Ki (nM)

A = CCS(=O)(=O)c1ccc2cc1CNC(=O)[C@H](Nc1ccc3c(N)nccc3c1)c1ccc(cc1)CCCC(=O)N2
B = Nc1nccc2cc(NC3C(=O)NCc4cccc(c4)NC(=O)CCCc4ccc3cc4)ccc12 (stereo not given)
Ask: Between the entries labelled A and B , which has a larger Ki value on record? Write down the label of the entry you select.
Reply: B
(B: 920 nM, A: 8 nM)

P = Nc1nccc2cc(NC3C(=O)NCc4cccc(c4)NC(=O)CCCOc4ccc3cc4)ccc12 (stereo not given)
Q = Nc1nccc2cc(N[C@H]3C(=O)NCc4cccc(c4)NC(=O)CCCc4ccc3cc4)ccc12
R = CC(=O)Nc1ccc(S(=O)(=O)C(C)C)c([C@H]2CCCN2C(=O)[C@H](Nc2ccc3c(N)nccc3c2)c2ccccc2)c1
S = CC(=O)Nc1cccc(CNC(=O)C(Nc2ccc3c(N)nccc3c2)c2ccccc2)c1 (stereo not given)
Ask: Number of compounds to sort: 4. Sort criterion: Ki, ascending. Your reply should list the labels following the order given in the request.
Reply: R, Q, P, S
(R: 8 nM, Q: 400 nM, P: 4600 nM, S: 10000 nM)
